Data provenance: ChEMBL document CHEMBL2040840

# System: Plasmodium falciparum
# Measurement description: Antiplasmodial activity against Plasmodium falciparum NF54 infected in human erythrocytes assessed as decrease in parasitemia measured on day 3 post-treatment by geimsa staining (reference value: 2.18 +/- 0.17%)
# Assay type: functional
# Design: scale not given: the % may be the effect or the level left
List of Activity values.
Recorded endpoint: Activity (%)

Molecule	Data value
CCN(CC)CCCC(C)Nc1ccnc2cc(Cl)ccc12 (configuration not stated) [CHLOROQUINE]	0
O=C1C(O)=C(N2CCN(c3ccccc3)CC2)C(=O)c2ccccc21	0.03
CCCc1ccc(-c2ccc(NC3=C(Br)C(=O)c4nc(C)ccc4C3=O)cc2)cc1	0.05
Cc1ccc2c(n1)C(=O)C(Br)=C(NN1CCN(NC3=C(Br)C(=O)c4nc(C)ccc4C3=O)CC1)C2=O	0.05
Cc1ccc2c(n1)C(=O)C(Br)=C(N1CCN(c3ccccc3)CC1)C2=O	0
Cc1ccc2c(n1)C(=O)C(Br)=C(NN1CCN(N)CC1)C2=O	0.07
Cc1ccc2c(n1)C(=O)C=C(N1CCN(c3ccccc3)CC1)C2=O	0.04
